Hello, the source for this data is patent US3989835A, in case you need it.

assay: in vivo; conditions: mouse, in vivo, po, LD50, mice; adjusted to molar equivalents of tetramisole free base
Property: LD50; scope: individual compounds

COMPOUND	MEAS VALUE
O=C(Nc1cccc(C2CN3CCSC3=N2)c1)c1ccco1 (stereo not drawn)	80 to 100 mg/kg
O=C(C=Cc1ccccc1)Nc1cccc(C2CN3CCSC3=N2)c1 (stereo not drawn)	~90 mg/kg
O=C(Nc1cccc(C2CN3CCSC3=N2)c1)c1ccc(Cl)c(Cl)c1 (stereo not drawn)	80 to 100 mg/kg
CC(C)C(=O)Nc1cccc(C2CN3CCSC3=N2)c1.Cl (stereo not drawn)	~75 mg/kg

Enquiry: Returns the measured LD50 for the input compound. Input: O=C(CCl)Nc1cccc(C2CN3CCSC3=N2)c1 (stereo not drawn)
Return: 50 to 60 mg/kg

Enquiry: Returns the measured LD50 for the input compound. Input: O=CNc1cccc(C2CN3CCSC3=N2)c1 (racemic) [m-NH--HCO dl]
Return: ~30 mg/kg

Enquiry: Returns the measured LD50 for the input compound. Input: O=CNc1cccc(C2CN3C=CSC3=N2)c1 (stereo not drawn) [5,6-dihydro HNCHO]
Return: ~150 mg/kg

Enquiry: Returns the measured LD50 for the input compound. Input: CC(C)(C)C(=O)Nc1cccc(C2CN3CCSC3=N2)c1 (racemic) [m-NH--CO--C(CH3)3 dl]
Return: ~100 mg/kg

Enquiry: Returns the measured LD50 for the input compound. Input: O=C(Nc1cccc(C2CN3CCSC3=N2)c1)c1cccc(Cl)c1 (stereo not drawn)
Return: 80 to 100 mg/kg

Enquiry: Returns the measured LD50 for the input compound. Input: CC(C)N(C)c1cccc(C2CN3CCSC3=N2)c1 (racemic)
Return: 40 to 60 mg/kg
